test system: Human papillomavirus type 1a protein E7 (residues 44-93); experiment: small molecules binding HPV E7 44-93 – biochemical, small-molecule microarray, residues 44-93, 635 nm fluorescence, primary screen (AID 1108); details: fluorescence 635 nm, higher = more signal;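 also: E7 fragment applied at 1 µg/mL in TBST for 1 h at 4 C; score combines spot fluorescence with its signal to noise ratio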
Answer NOT MET if composite z-score is under 1, and MET if it is 1 or more.

{"columns": ["molecule", "assigned.category"],
 "data": [
  ["C[N+](C)(C)CCCC[C@@H]1NC(=O)[C@@H]2C[C@H](C(=O)NCCCCCCNC(=O)CS)[C@H](c3ccc(O)cc3)N2C1=O", "NOT MET"],
  ["O=C(NC1CC1)[C@@H]1c2ccccc2C(=O)N(C2Cc3ccccc3C2)[C@H]1c1ccc(CO)cc1", "MET"],
  ["CC(C)CNC(=O)[C@@]1(Cc2ccccc2I)c2ccccc2C(=O)N(Cc2ccccc2C(F)(F)F)[C@H]1c1ccc(CO)cc1", "NOT MET"],
  ["C=CCNC(=O)[C@H]1[C@@H]2C(=O)O[C@@H](c3ccccc3)[C@@H](c3ccccc3)N2[C@@H](c2ccc(OCCO)cc2)[C@]12C(=O)Nc1ccc(C#CCC(C(=O)OC)C(=O)OC)cc12", "NOT MET"],
  ["CN(C)CCCCCCNC(=O)[C@@H]1C[C@@H]2C(=O)N3CCC[C@H]3C(=O)N2[C@@H]1c1ccc(O)cc1", "MET"],
  ["CC(C)NC(=O)[C@@]1(Cc2ccccc2I)c2ccccc2C(=O)N(Cc2ccccc2Cl)[C@H]1c1ccc(CO)cc1", "MET"],
  ["O=C1NC(=O)C2C1C=CC(C(O)C=Cc1ccc([N+](=O)[O-])cc1)N2Nc1ccc(Cl)cc1Cl (configuration not stated)", "NOT MET"]
]}

FYI, the data here is from PubChem BioAssay.
